# pKd listing for each entry below
# tgt: T1, recombinant extracellular domain (ECD) of the human prolactin receptor (PRLR) (human, UniProt P16471 25-234)
# T1 construct: also called PRLR ECD; Human PRLR; not shown: His tag
# T1 sequence: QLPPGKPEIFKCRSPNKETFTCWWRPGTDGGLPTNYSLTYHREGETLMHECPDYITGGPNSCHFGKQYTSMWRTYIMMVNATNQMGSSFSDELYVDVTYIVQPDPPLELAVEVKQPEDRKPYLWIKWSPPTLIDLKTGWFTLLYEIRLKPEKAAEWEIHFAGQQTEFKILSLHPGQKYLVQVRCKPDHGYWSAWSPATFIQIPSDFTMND
# assay method text: Biacore SPR, antibody captured on Protein A/G, kinetic titration of PRLR ECD, 1:1 Langmuir
pKd: −log10 of the molar value.
quantity measured: pKd

[[record]]
binder = "he.06.275-2 (antibody, V domains shown, Human Engineered) VH: QVQLQESGPGLVKPSQTLSLTCTVSGYSITSDYAWNWIRQFPGKGLEWMGYISYSGSTSYNPSLKSRITISRDTSKNQFSLQLNSVTAADTAVYFCARDYGYVFDYWGQGTTLTVSS VL: DVQITQSPSSLSASPGDRITLTCRASKNIYKYLAWYQEKPGKTNNLLIYSGSTLHSGIPSRFSGSGSGTDFTLTISSLQPEDFAMYYCQQHNDYPYTFGQGTKLEIK"
quantity_measured = "pKd"
reported_value = 9.21

[[record]]
binder = "he.06.275-4 (antibody, V domains shown, Human Engineered) VH: QVQLQESGPGLVKPSQTLSLTCTVSGYSITSDYAWNWIRQFPGKGLEWMGYISYSGSTSYNPSLKSRITISRDTSKNQFSLQLNSVTAADTAVYFCARDYGYVFDYWGQGTTLTVSS VL: DVQITQSPSSLSASPGDRITLTCRASKNIYKYLAWYQEKPGKANKLLIYSGSTLHSGIPSRFSGSGSGTDFTLTISSLQPEDFAMYYCQQHNDYPYTFGQGTKLEIK"
quantity_measured = "pKd"
reported_value = 9.28

[[record]]
binder = "he.06.642-1 (antibody, V domains shown, Human Engineered) VH: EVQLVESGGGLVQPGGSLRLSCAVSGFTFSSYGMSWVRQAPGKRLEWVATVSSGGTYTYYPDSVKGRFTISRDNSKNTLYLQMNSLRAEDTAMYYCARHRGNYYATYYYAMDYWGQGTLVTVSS VL: DIVLTQSPDSLAVSLGERATINCKASKSVSTSGYTYMHWYQQKPGQPPKLLIYLASNRESGVPDRFSGSGSGTDFTLTISPVQAEDVATYYCQHSGELPPSFGQGTKLEIK"
quantity_measured = "pKd"
reported_value = 8.70


Values compiled from patent US20080292620A1.
